# Tested on: 885724-159-R-J1-PDC KRAS PDC multicell spheroid viability
# measurement_description: Anticancer human tumor 885724-159-R-J1-PDC patient-derived pancreatic adenocarcinoma cell line growth inhibition [KRAS2]
# test_settings: second compound 3.16 µM; first compound 1 µM; stronger effect = lower value
# key: entry, value: viability, T/C
Your answer should be a plain number; it is taken to be in %.

The examples below pair each entry with its known result.
compound	target	endpoint_unit	viability, T/C
CCNC(=O)CC1N=C(c2ccc(Cl)cc2)c2cc(OC)ccc2-n2c(C)nnc21 (stereo not given) + C=CC(=O)N1CCN(c2nc(OCC3CCCN3C)nc3c2CCN(c2cccc4cccc(C)c24)C3)CC1CC#N	885724-159-R-J1-PDC KRAS PDC multicell spheroid viability	%	20.6
COC(=O)c1ccc2c(C(=Nc3ccc(N(C)C(=O)CN4CCN(C)CC4)cc3)c3ccccc3)c(O)[nH]c2c1 + C=CC(=O)N1CCN(c2nc(OCC3CCCN3C)nc3c2CCN(c2cccc4cccc(C)c24)C3)CC1CC#N	885724-159-R-J1-PDC KRAS PDC multicell spheroid viability	%	38
COc1cc2nccc(Oc3ccc(NC(=O)C4(C(=O)Nc5ccc(F)cc5)CC4)cc3)c2cc1OC + C=CC(=O)N1CCN(c2nc(OCC3CCCN3C)nc3c2CCN(c2cccc4cccc(C)c24)C3)CC1CC#N	885724-159-R-J1-PDC KRAS PDC multicell spheroid viability	%	33.7
CC1(C)CCC(CN2CCN(c3ccc(C(=O)NS(=O)(=O)c4ccc(NCC5CCOCC5)c([N+](=O)[O-])c4)c(Oc4cnc5[nH]ccc5c4)c3)CC2)=C(c2ccc(Cl)cc2)C1 + CC1OCC2(CCN(c3cnc(Sc4ccnc(N)c4Cl)c(N)n3)CC2)C1N	885724-159-R-J1-PDC KRAS PDC multicell spheroid viability	%	57.4

Alright, here's another compound for you.
Lab note: COc1cc2nccc(Oc3ccc(NC(=O)C4(C(=O)Nc5ccc(F)cc5)CC4)cc3)c2cc1OC + COc1cc2nc(C)nc(NC(C)c3cc(N)cc(C(F)(F)F)c3)c2cc1OC1CCOC1 gave viability, T/C of 67.6

###

# key: entry, value: viability, T/C
# Test system: 885724-159-R-J1-PDC KRAS PDC multicell spheroid viability
# measurement_description: Anticancer human tumor 885724-159-R-J1-PDC cell line growth inhibition [KRAS2];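 also: spheroids exposed to agents for 7 days before readout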
# test_settings: second compound 3.16 µM; first compound 3.16 µM; stronger effect = lower value
Your answer should be a plain number; it is taken to be in %.

compound	reported_result
CCNC(=O)CC1N=C(c2ccc(Cl)cc2)c2cc(OC)ccc2-n2c(C)nnc21 (centres undefined) + C=CC(=O)N1CCN(c2nc(=O)n(-c3c(C)ccnc3C(C)C)c3nc(-c4c(O)cccc4F)c(F)cc23)C(C)C1	51.8
CC1(C)CCC(CN2CCN(c3ccc(C(=O)NS(=O)(=O)c4ccc(NCC5CCOCC5)c([N+](=O)[O-])c4)c(Oc4cnc5[nH]ccc5c4)c3)CC2)=C(c2ccc(Cl)cc2)C1 + C=CC(=O)N1CCN(c2nc(=O)n(-c3c(C)ccnc3C(C)C)c3nc(-c4c(O)cccc4F)c(F)cc23)C(C)C1	80.8
CCNC(=O)CC1N=C(c2ccc(Cl)cc2)c2cc(OC)ccc2-n2c(C)nnc21 (centres undefined) + CNCc1ccccc1-c1csc(C(C)Nc2nc(C)nc3cc(OC)c(OC)cc23)c1	0.16
COC(=O)c1ccc2c(C(=Nc3ccc(N(C)C(=O)CN4CCN(C)CC4)cc3)c3ccccc3)c(O)[nH]c2c1 + C=CC(=O)N1CCN(c2nc(=O)n(-c3c(C)ccnc3C(C)C)c3nc(-c4c(O)cccc4F)c(F)cc23)C(C)C1	25.1
CC1(C)CCC(CN2CCN(c3ccc(C(=O)NS(=O)(=O)c4ccc(NCC5CCOCC5)c([N+](=O)[O-])c4)c(Oc4cnc5[nH]ccc5c4)c3)CC2)=C(c2ccc(Cl)cc2)C1 + CNCc1ccccc1-c1csc(C(C)Nc2nc(C)nc3cc(OC)c(OC)cc23)c1	0.62

Form field, viability, T/C with 885724-159-R-J1-PDC KRAS PDC multicell spheroid viability, item COc1cc(Nc2ncc3c(n2)-c2ccc(Cl)cc2C(c2c(F)cccc2OC)=NC3)ccc1C(=O)O + CNCc1ccccc1-c1csc(C(C)Nc2nc(C)nc3cc(OC)c(OC)cc23)c1 : 4.03

Form field, viability, T/C with 885724-159-R-J1-PDC KRAS PDC multicell spheroid viability, item CCNC(=O)CC1N=C(c2ccc(Cl)cc2)c2cc(OC)ccc2-n2c(C)nnc21 (centres undefined) + CC1OCC2(CCN(c3cnc(Sc4ccnc(N)c4Cl)c(N)n3)CC2)C1N : 33.5

Form field, viability, T/C with 885724-159-R-J1-PDC KRAS PDC multicell spheroid viability, item CC1(C)CCC(CN2CCN(c3ccc(C(=O)NS(=O)(=O)c4ccc(NCC5CCOCC5)c([N+](=O)[O-])c4)c(Oc4cnc5[nH]ccc5c4)c3)CC2)=C(c2ccc(Cl)cc2)C1 + C=CC(=O)N1CCN(c2nc(OCC3CCCN3C)nc3c2CCN(c2cccc4cccc(C)c24)C3)CC1CC#N : 0.97

Form field, viability, T/C with 885724-159-R-J1-PDC KRAS PDC multicell spheroid viability, item CC(=O)OC12COC1CC(O)C1(C)C(=O)C(O)C3=C(C)C(OC(=O)C(O)C(NC(=O)OC(C)(C)C)c4ccccc4)CC(O)(C(OC(=O)c4ccccc4)C21)C3(C)C (centres undefined) + C=CC(=O)N1CCN(c2nc(=O)n(-c3c(C)ccnc3C(C)C)c3nc(-c4c(O)cccc4F)c(F)cc23)C(C)C1 : 121

Form field, viability, T/C with 885724-159-R-J1-PDC KRAS PDC multicell spheroid viability, item Cn1nccc1Nc1nccc(-c2cc3c(s2)C(C)(C)N(CCN2CCOCC2)C3=O)n1 + C=CC(=O)N1CCN(c2nc(OCC3CCCN3C)nc3c2CCN(c2cccc4cccc(C)c24)C3)CC1CC#N : 14.7

Form field, viability, T/C with 885724-159-R-J1-PDC KRAS PDC multicell spheroid viability, item CC1(C)CCC(CN2CCN(c3ccc(C(=O)NS(=O)(=O)c4ccc(NCC5CCOCC5)c([N+](=O)[O-])c4)c(Oc4cnc5[nH]ccc5c4)c3)CC2)=C(c2ccc(Cl)cc2)C1 + COc1cc2nc(C)nc(NC(C)c3cc(N)cc(C(F)(F)F)c3)c2cc1OC1CCOC1 : 59.7

Form field, viability, T/C with 885724-159-R-J1-PDC KRAS PDC multicell spheroid viability, item O=C(c1cc(Cc2n[nH]c(=O)c3ccccc23)ccc1F)N1CCN(C(=O)C2CC2)CC1 + C=CC(=O)N1CCN(c2nc(OCC3CCCN3C)nc3c2CCN(c2cccc4cccc(C)c24)C3)CC1CC#N : 58.3
